Kindly state pEC50 for each of the entries shown.
- Assay Target: human FPR1 (Homo sapiens (Human), UniProt P21462)
- Sequence (P21462 whole entry): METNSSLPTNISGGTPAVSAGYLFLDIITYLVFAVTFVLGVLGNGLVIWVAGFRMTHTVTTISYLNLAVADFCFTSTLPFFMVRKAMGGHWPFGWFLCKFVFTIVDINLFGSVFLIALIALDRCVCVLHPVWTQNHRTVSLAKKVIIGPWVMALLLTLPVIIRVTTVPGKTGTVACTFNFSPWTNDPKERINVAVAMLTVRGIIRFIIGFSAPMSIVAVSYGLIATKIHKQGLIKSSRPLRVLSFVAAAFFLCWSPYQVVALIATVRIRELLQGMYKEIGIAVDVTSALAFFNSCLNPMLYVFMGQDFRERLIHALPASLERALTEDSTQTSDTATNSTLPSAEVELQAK
- Protocol Description: FPR1 cyclic adenosine monophosphate (cAMP) assay
- Study Conditions: CHO cells overexpressing human FPR1; forskolin 10 μM, IBMX 200 μM; inhibition of cAMP production, HTRF; read-out: hFPR1 cAMP EC50
Give bare numbers, as −log10 of the molar value.

For each of the items listed, what is its pEC50?
1. CS(=O)(=O)Nc1ncccc1-c1ccc(N2CC[C@@H](NC(=O)Nc3ccc(Cl)cc3F)C2=O)c(C2CC2)c1
2. CC(N)c1cccc(-c2ccc(N3CC[C@@H](NC(=O)Nc4ccc(Cl)cc4F)C3=O)c(F)c2F)c1 (some centres unmarked)
3. CS(=O)(=O)c1ccccc1-c1ccc(N2C(=O)[C@H](NC(=O)Nc3ccc(C(F)(F)F)cc3F)C[C@H]2CO)c(F)c1F
4. COC[C@@H]1C[C@@H](NC(=O)Nc2ccc(Cl)cc2F)C(=O)N1c1ccc(-c2ccccc2P(C)(C)=O)c(F)c1F
5. COc1c(N2CC[C@@H](NC(=O)Nc3ccc(Cl)cc3F)C2=O)ccc(-c2ccccc2NS(C)(=O)=O)c1F
6. CP(C)(=O)c1ccccc1-c1ccc(N2CC[C@@H](NC(=O)Nc3ccc(Cl)cc3F)C2=O)c(F)c1F
7. O=C(Nc1ccc(Cl)cc1F)N[C@@H]1CCN(c2ccc(-c3ccccc3CO)c(F)c2F)C1=O
8. CP(C)(=O)c1ccccc1-c1ccc(N2CC[C@@H](NC(=O)Nc3cnc(Cl)cn3)C2=O)c(F)c1F

// result
[6.96, 6.19, 7.24, 7.08, 7.16, 6.59, 6.44, 5.36]

For each of the items listed, what is its pEC50?
1. CC(N)c1cccc(-c2ccc(N3CC[C@@H](NC(=O)Nc4ccc(Cl)cc4)C3=O)c(F)c2F)c1 (some centres unmarked) [Example 22]
2. CS(=O)(=O)c1ccccc1-c1ccc(N2CC[C@@H](NC(=O)Nc3ccc(C(F)(F)F)cc3)C2=O)c(F)c1F
3. CC1(C)CN(c2ccc(-c3cccnc3P(C)(C)=O)c(F)c2F)C(=O)[C@@H]1NC(=O)Nc1ccc(Cl)cc1F
4. COc1ncccc1-c1ccc(N2CC[C@@H](NC(=O)Nc3ccc(Cl)cc3F)C2=O)c(F)c1F
5. CS(=N)(=O)c1ccccc1-c1ccc(N2CC[C@@H](NC(=O)Nc3ccc(C(F)(F)F)cc3F)C2=O)c(F)c1F (some centres unmarked)
6. CP(C)(=O)c1ccccc1-c1ccc(N2CC[C@@H](NC(=O)Nc3ncc(Cl)cc3F)C2=O)c(F)c1F

// result
5.82
6.54
6.23
6.49
6.24
5.11

----------
- Assay Target: human FPR2 (Homo sapiens (Human))
- Protocol Description: FPR2 cyclic adenosine monophosphate (cAMP) assay
- Study Conditions: CHO cells overexpressing human FPR2; forskolin 5 μM, IBMX 200 μM; inhibition of cAMP production, HTRF; read-out: hFPR2 cAMP2 EC50
Parameter Measured: pEC50
One number for each entry, as −log10 of the molar value.

Look over these answered cases.
- Compound: "O=C(Nc1ccc(Cl)cc1)N[C@@H]1CCN(c2ccc(-c3ccccc3F)c(F)c2F)C1=O [Example 16]"
  Number: 7.92
- Compound: "CS(=O)(=O)c1ccccc1-c1ccc(N2CC[C@@H](NC(=O)Nc3ccc(C(F)(F)F)cc3)C2=O)c(F)c1F [Example 11]"
  Number: 8.59
- Compound: "CP(C)(=O)c1ccccc1-c1ccc(N2CC[C@@H](NC(=O)Nc3ccc(Cl)cc3F)C2=O)c(C(F)(F)F)c1F [Example 91]"
  Number: 8.24
- Compound: "CP(C)(=O)c1ccccc1-c1ccc(N2CC[C@@H](NC(=O)Nc3ccc(Cl)cc3F)C2=O)c(F)c1F [Example 25]"
  Number: 9.28
- Compound: "CS(=O)(=O)Nc1ccccc1-c1ccc(N2CC[C@@H](NC(=O)Nc3cnc(C(F)(F)F)cn3)C2=O)c(F)c1F [Example 18]"
  Number: 7.70

For each of the items listed, what is its pEC50?
1. CC(C)c1cc(-c2ccccc2NS(C)(=O)=O)ccc1N1CC[C@@H](NC(=O)Nc2ccc(C(F)(F)F)cc2F)C1=O [Example 37]
2. CS(=O)(=O)Nc1ccccc1-c1ccc(N2CC[C@@H](NC(=O)Nc3ccc(C(F)(F)F)cc3F)C2=O)c(C2CC2)c1 [Example 43]
3. CP(C)(=O)c1c(F)cccc1-c1ccc(N2CC[C@@H](NC(=O)Nc3ccc(C(F)(F)F)cc3F)C2=O)c(F)c1Cl [Example 86]
4. O=C(Nc1ccc(C(F)(F)F)cc1F)N[C@@H]1CCN(c2ccc(-c3ccccc3CO)c(F)c2F)C1=O [Example 31]
5. CP(C)(=O)c1ccccc1-c1ccc(N2CC[C@@H](NC(=O)Nc3cnc(Cl)cn3)C2=O)c(C2CC2)c1 [Example 62]

// result
1. 8.85
2. 8.48
3. 9.07
4. 8.40
5. 7.51

For each of the items listed, what is its pEC50?
1. CP(C)(=O)c1ccccc1-c1ccc(N2CC[C@@H](NC(=O)Nc3cnc(Cl)cn3)C2=O)c(F)c1F [Example 63]
2. CS(=O)(=O)Nc1ccccc1-c1ccc(N2CC[C@@H](NC(=O)Nc3ccc(C(F)(F)F)cc3F)C2=O)c(F)c1F [Example 33]
3. CP(C)(=O)c1ccccc1-c1ccc(N2CC[C@@H](NC(=O)Nc3ccc(C(F)(F)F)cc3F)C2=O)c(F)c1Cl [Example 77]
4. O=C(Nc1ccc(Cl)cc1F)N[C@@H]1CCN(c2ccc(-c3cnn(C(F)F)c3)c(F)c2F)C1=O [Example 79]

// result
8.25
8.96
8.92
7.41

----------
- Assay Target: human FPR2 (Homo sapiens (Human), UniProt P25090)
- Sequence (P25090 whole entry): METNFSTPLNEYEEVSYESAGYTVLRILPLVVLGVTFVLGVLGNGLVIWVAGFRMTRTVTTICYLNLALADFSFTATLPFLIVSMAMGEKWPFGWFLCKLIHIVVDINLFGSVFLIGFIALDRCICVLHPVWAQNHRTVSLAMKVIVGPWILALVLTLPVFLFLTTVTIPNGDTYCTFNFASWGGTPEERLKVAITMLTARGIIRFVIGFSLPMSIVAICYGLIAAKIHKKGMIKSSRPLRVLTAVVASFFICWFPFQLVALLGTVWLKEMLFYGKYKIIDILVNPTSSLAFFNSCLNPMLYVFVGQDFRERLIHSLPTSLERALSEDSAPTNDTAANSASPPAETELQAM
- Protocol Description: FPR2 cyclic adenosine monophosphate (cAMP) assay
- Study Conditions: CHO cells overexpressing human FPR2; forskolin 5 μM, IBMX 200 μM; inhibition of cAMP production, HTRF; read-out: hFPR2 cAMP2 EC50
Parameter Measured: EC50 (nM)
Numbers only, in nM.

- Compound: "CP(C)(=O)c1ncccc1-c1ccc(N2C(=O)[C@H](NC(=O)Nc3ccc(C(F)(F)F)cc3F)C[C@H]2CO)c(F)c1F"
  Parameter Measured: "EC50"
  Number: 1.5
- Compound: "O=C(Nc1ccc(C(F)(F)F)cc1F)N[C@@H]1CCN(c2ccc(-c3cccc4c3S(=O)(=O)NC4)c(F)c2F)C1=O"
  Parameter Measured: "EC50"
  Number: 7.2

For each of the items listed, what is its EC50?
1. CP(C)(=O)c1ccccc1-c1cc(F)c(N2CC[C@@H](NC(=O)Nc3ccc(Cl)cc3F)C2=O)c(F)c1
2. CC(C)c1cc(-c2cccnc2NS(C)(=O)=O)ccc1N1CC[C@@H](NC(=O)Nc2ccc(Cl)cc2F)C1=O
3. Cc1c(N2CC[C@@H](NC(=O)Nc3ccc(Cl)cc3F)C2=O)ccc(-c2ccccc2P(C)(C)=O)c1F
4. CP(C)(=O)c1ccccc1-c1ccc(N2CC[C@@H](NC(=O)Nc3ccc(Cl)cc3F)C2=O)c(Cl)c1Cl

// result
1: 7.8; 2: 2.8; 3: 2.9; 4: 1.2

----------
- Assay Target: human FPR1 (Homo sapiens (Human), UniProt P21462)
- Protocol Description: FPR1 cyclic adenosine monophosphate (cAMP) assay
- Study Conditions: CHO cells overexpressing human FPR1; forskolin 10 μM, IBMX 200 μM; inhibition of cAMP production, HTRF; read-out: hFPR1 cAMP EC50
Parameter Measured: EC50 (nM)
Answers are plain numbers, in nM.

For each of the items listed, what is its EC50?
1. O=C(Nc1ccc(Cl)cc1F)N[C@@H]1CCN(c2ccc(-c3ccccc3F)c(F)c2F)C1=O
2. CS(=O)(=O)Nc1ccccc1-c1ccc(N2CC[C@@H](NC(=O)Nc3ccc(Cl)cc3F)C2=O)c(F)c1F

// result
390
230

For each of the items listed, what is its EC50?
1. CP(C)(=O)c1ccccc1-c1cc(F)c(N2CC[C@@H](NC(=O)Nc3ccc(Cl)cc3F)C2=O)c(F)c1
2. CP(C)(=O)c1ccccc1-c1ccc(N2CC[C@@H](NC(=O)Nc3ccc(C(F)(F)F)cc3F)C2=O)c(Cl)c1Cl

// result
1. 2700
2. 86

----------
- Assay Target: human FPR2 (Homo sapiens (Human), UniProt P25090)
- Protocol Description: FPR2 cyclic adenosine monophosphate (cAMP) assay
- Study Conditions: CHO cells overexpressing human FPR2; forskolin 5 μM, IBMX 200 μM; inhibition of cAMP production, HTRF; read-out: hFPR2 cAMP2 EC50
Parameter Measured: EC50 (nM)
One number for each entry, in nM.

Look over these answered cases.
- Molecule: "CP(C)(=O)c1ccccc1-c1ccc(N2CC[C@@H](NC(=O)Nc3ccc(C(F)(F)F)cc3F)C2=O)c(F)c1F"
  Assay Target: "human FPR2 (Homo sapiens (Human), UniProt P25090)"
  EC50 [nM]: 0.95
- Molecule: "CS(=O)(=O)c1ccccc1-c1cc(F)c(N2CC[C@@H](NC(=O)Nc3ccc(Cl)cc3F)C2=O)c(F)c1"
  Assay Target: "human FPR2 (Homo sapiens (Human), UniProt P25090)"
  EC50 [nM]: 10
- Molecule: "CC1C[C@@H](NC(=O)Nc2ccc(Cl)cc2F)C(=O)N1c1ccc(-c2cccnc2P(C)(C)=O)c(F)c1F (stereo partly shown) [Example 122]"
  Assay Target: "human FPR2 (Homo sapiens (Human), UniProt P25090)"
  EC50 [nM]: 0.81
- Molecule: "CP(C)(=O)c1ccccc1-c1ccc(N2CC[C@@H](NC(=O)Nc3ccc(OC(F)(F)F)cc3)C2=O)c(F)c1F"
  Assay Target: "human FPR2 (Homo sapiens (Human), UniProt P25090)"
  EC50 [nM]: 8.2
- Molecule: "CCP(=O)(CC)c1ccccc1-c1ccc(N2CC[C@@H](NC(=O)Nc3ccc(C(F)(F)F)cc3F)C2=O)c(F)c1F"
  Assay Target: "human FPR2 (Homo sapiens (Human), UniProt P25090)"
  EC50 [nM]: 0.53
- Molecule: "CS(=O)(=O)Nc1ccccc1-c1ccc(N2CC[C@@H](NC(=O)Nc3ccc(Cl)cc3)C2=O)c(F)c1F"
  Assay Target: "human FPR2 (Homo sapiens (Human), UniProt P25090)"
  EC50 [nM]: 0.43

// query Field request: EC50 | item: CS(=O)(=O)Nc1ccccc1-c1ccc(N2CC[C@@H](NC(=O)Nc3ccc(C(F)(F)F)nc3)C2=O)cc1
// result 24
